Listing of entries alongside the reported Activity.
Target: Transthyretin (Homo sapiens)
Test: Inhibition of TTR mediated fibrillogenesis assessed as acid-induced protein aggregation turbidity at […] after 1.5 hrs by turbidimetric assay relative to control
Parameters: scale not given: the % may be the effect or the level left

                                   compound  quantity  observed
0          Cc1ccc(/N=C2\C(=O)Nc3ccccc32)cc1  Activity       14%
1  O=C1Nc2ccc([N+](=O)[O-])cc2/C1=N/c1ccc(I)cc1  Activity        7%
2     Cc1ccc2c(c1)/C(=N/c1ccc(I)cc1)C(=O)N2  Activity        7%

Let us move to another entry and its Activity.
Suppose we examine the compound O=C1Nc2ccccc2C1=O [ISATIN] ; what Activity value has been reported? 24%
